Reported half-life by item:
- EXPERIMENT: Pharmacokinetic (PK) study in rats
- Assay type: in vivo
- RECORDED_CONDITIONS: rat, plasma; male SD rats, intravenous, 1 mg/kg
- Protocol: The pharmacokinetic profile of the compounds of Examples was studied by intravenous administration of the compounds of Examples to male SD rats. The dose for IV administration was 1 mg/kg, and the solvent was 5% DMSO: 5% solutol: 90% physiological saline. After IV administration, blood samples were collected at different time points for PK study. Plasma were treated by protein precipitation and then analyzed by LC-MS/MS. […]
Respond numerically; units are min and should not be typed.

# example entries with known answers
- SUBSTANCE_SMILES: "CC(C)C[C@@H](NC(=O)[C@@H](Cc1ccccc1)NC(=O)[C@H](N)Cc1ccccc1)C(=O)N[C@H](CCCCNCCN)C(=O)N1CCC(N)(C(=O)O)CC1"
  half-life / min: 20.4
- SUBSTANCE_SMILES: "CC(C)C[C@@H](NC(=O)[C@@H](Cc1ccccc1)NC(=O)[C@H](N)Cc1ccccc1)C(=O)N[C@H](CCCCNCCCN)C(=O)N1CCC(N)(C(=O)O)CC1"
  half-life / min: 73.2
- SUBSTANCE_SMILES: "COCCOCCOCCOCCOCCOCCOCCNCCCC[C@@H](NC(=O)[C@@H](CC(C)C)NC(=O)[C@@H](Cc1ccccc1)NC(=O)[C@H](N)Cc1ccccc1)C(=O)N1CCC(N)(C(=O)O)CC1"
  half-life / min: 17.4

### Prompt Requested field: half-life. Item: COCCOCCNCCCC[C@@H](NC(=O)[C@@H](CC(C)C)NC(=O)[C@@H](Cc1ccccc1)NC(=O)[C@H](N)Cc1ccccc1)C(=O)N1CCC(N)(C(=O)O)CC1
### Response 16.8
